system: MDR1; assay: Apparent permeability from apical to basolateral side of MDCK cells expressing MDR1; format: ADME, cell-based, Canis lupus familiaris; settings: dog
reported-property: Papp A→B (×10⁻⁶ cm/s)

>  <compound>
Cc1cc2cc(n1)OCCCCOc1cccc(c1)C[C@@H]([C@H](O)CNC(C)c1cccc(C(C)C)c1)NC2=O (some centres undefined)

>  <result-unit>
×10⁻⁶ cm/s

>  <Papp A→B>
1.3

$$$$
>  <compound>
Cc1cc2cc(n1)OCCCCOc1cccc(c1)C[C@@H]([C@H](O)CNC1(c3cccc(C(C)C)c3)CC1)NC2=O

>  <result-unit>
×10⁻⁶ cm/s

>  <Papp A→B>
4

$$$$

A: COCc1cc2cc(c1)C(=O)N[C@H]([C@H](O)CNCc1cccc(C(C)C)c1)Cc1cccc(c1)OCCCCN2
B: COCc1cc2cc(c1)C(=O)N[C@H]([C@H](O)CNC1(c3cccc(C(C)(C)C)c3)CCC1)Cc1cccc(c1)OCCCCN2
Between item A and item B , which reported Papp A→B is smaller? // caller expects the label of the chosen entry
A
(A: 0.16 ×10⁻⁶ cm/s, B: 1.2 ×10⁻⁶ cm/s)
